The reported numbers originate from patent US11530244B2.

target: human PCSK9 / human LDLR EGFa domain interaction (Homo sapiens (Human), UniProt Q8NBP7); assay: TR-FRET assay of inhibition of the PCSK9-LDLR protein-protein interaction; format: binding; conditions: TR-FRET, 20 nM human PCSK9, 20 nM human LDLR EGFa domain, 2 hours room temperature; read-out: IC50
Sequence (Q8NBP7 153-692): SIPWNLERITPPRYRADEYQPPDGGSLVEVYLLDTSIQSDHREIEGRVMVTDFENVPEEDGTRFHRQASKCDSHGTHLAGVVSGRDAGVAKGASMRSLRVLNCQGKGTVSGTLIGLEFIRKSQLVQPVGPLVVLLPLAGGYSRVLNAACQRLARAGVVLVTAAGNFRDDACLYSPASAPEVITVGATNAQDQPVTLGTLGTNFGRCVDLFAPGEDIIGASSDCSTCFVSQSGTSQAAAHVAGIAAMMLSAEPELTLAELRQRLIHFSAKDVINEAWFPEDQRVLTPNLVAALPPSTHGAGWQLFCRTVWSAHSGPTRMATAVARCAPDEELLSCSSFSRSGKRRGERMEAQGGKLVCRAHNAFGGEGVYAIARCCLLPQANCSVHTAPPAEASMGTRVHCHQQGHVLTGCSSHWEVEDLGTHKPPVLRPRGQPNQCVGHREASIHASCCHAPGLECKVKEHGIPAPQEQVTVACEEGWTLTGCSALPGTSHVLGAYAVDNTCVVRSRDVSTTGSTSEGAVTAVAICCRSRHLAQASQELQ
Sequence (Q8NBP7 31-152 partner): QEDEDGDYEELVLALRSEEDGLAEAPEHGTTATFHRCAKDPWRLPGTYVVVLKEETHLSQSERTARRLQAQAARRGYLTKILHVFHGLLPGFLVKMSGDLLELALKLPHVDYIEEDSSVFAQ
pIC50: −log10 of the molar value. Starred links: 1 amine or outer side, 2 acyl side, 3 side chain; linkers in the order of their positions; H or OH if unused. Positions of bridges follow the written chain, without caps; N, C: chain ends. Non-standard residues stand in square brackets, D forms with d. Residues, ends and D or L forms follow the SMILES beside them. X5 = O=C([C@@H]1C[C@H](SCc2ccc(C[*:3])cc2)CN1[*:1])[*:2]; X43 = O=C(CC[S+]([O-])Cc1cc(F)cc(CSCCN[*:1])c1)[*:2]; X25 = O=C([C@H](Cc1cccc(OCC=[*:3])c1)N[*:1])[*:2]; Trp(5-F) = N[C@@H](Cc1c[nH]c2ccc(F)cc12)C(=O)O; X42 = CN([C@@H](CCC=[*:3])C(=O)[*:2])[*:1]; mXylylene = c1cc(C[*:1])cc(C[*:2])c1; αMeP = C[C@@]1(C(=O)O)CCCN1; Mpa = O=C(O)CCS
Measure Name: pIC50

# pIC50 (compound: CC(=O)N[C@H]1CSCc2cccc(c2)CSC[C@@H](C(N)=O)NC(=O)[C@@H]2CCCN2C(=O)[C@H](Cc2ccc(O)cc2)NC(=O)[C@H](Cc2cnc[nH]2)NC(=O)[C@H](CC(=O)O)NC(=O)[C@H](Cc2c[nH]c3ccc(F)cc23)NC(=O)[C@H](Cc2c[nH]c3ccc(F)cc23)NC(=O)CNC(=O)[C@H](CCCCN)NC1=O [Compound 148] (Ac-CKG[Trp(5-F)][Trp(5-F)]DHYPC-NH2; linker 1-10 via mXylylene) ) is 6.00 to 7.00

# pIC50 (compound: COc1ccc(C[C@@H]2NC(=O)[C@H]([C@@H](C)OC)NC(=O)[C@@H]3CC/C=C/COc4cccc(c4)C[C@H](NC(=O)[C@@H](C)NC(=O)[C@H](C)NC(=O)CC[S+]([O-])Cc4cc(F)cc(c4)CSCCNC(=O)[C@]4(C)CCCN4C2=O)C(=O)N[C@@H](Cc2c[nH]c4ccc(F)cc24)C(=O)N3C)cc1 (stereo partly drawn) [Compound 507] (cyclo(A[dA][X25][Trp(5-F)][X42]T(Me)Y(Me)[αMeP][X43]); staple (E) 3-5) ) is 7.00 to 10.00

# pIC50 (compound: NCCCC[C@@H]1NC(=O)CCSCc2ccc(cc2)CS[C@H]2C[C@@H](C(N)=O)N(C2)C(=O)[C@H](Cc2ccc(O)cc2)NC(=O)[C@H](Cc2cnc[nH]2)NC(=O)[C@H](CC(=O)O)NC(=O)[C@H](Cc2c[nH]c3ccc(F)cc23)NC(=O)[C@H](Cc2c[nH]c3ccc(F)cc23)NC(=O)CNC1=O [Compound 328] ([Mpa]KG[Trp(5-F)][Trp(5-F)]DHY[X5]-NH2; thioether 1-9) ) is 7.00 to 10.00

###

For each of the compounds below, state its pIC50.
molecular target: human PCSK9 / human LDLR EGFa domain interaction (Homo sapiens (Human), UniProt Q8NBP7); assay: TR-FRET assay of inhibition of the PCSK9-LDLR protein-protein interaction; format: binding; settings: TR-FRET, 20 nM human PCSK9, 20 nM human LDLR EGFa domain, 2 hours room temperature; read-out: IC50
pIC50: −log10 of the molar value. Starred links: 1 amine or outer side, 2 acyl side, 3 side chain; linkers in the order of their positions; H or OH if unused. Positions of bridges follow the written chain, without caps; N, C: chain ends. Non-standard residues stand in square brackets, D forms with d. Residues, ends and D or L forms follow the SMILES beside them. NMeTrp(1-Me) = CN[C@@H](Cc1cn(C)c2ccccc12)C(=O)O; Trp(5-F) = N[C@@H](Cc1c[nH]c2ccc(F)cc12)C(=O)O; NMeW = CN[C@@H](Cc1c[nH]c2ccccc12)C(=O)O; X23 = CC[C@@]1(C(=O)[*:2])CCCN1[*:1]; mXylylene = c1cc(C[*:1])cc(C[*:2])c1; NMeY = CN[C@@H](Cc1ccc(O)cc1)C(=O)O; X35 = COc1cc(C[*:1])cc(C[*:2])c1; NMeD = CN[C@@H](CC(=O)O)C(=O)O; αMeP = C[C@@]1(C(=O)O)CCCN1; Mpa = O=C(O)CCS; Sar = CNCC(=O)O

# pIC50 (compound: CC[C@@]12CCCN1C(=O)[C@H](Cc1ccc(O)cc1)NC(=O)[C@H]([C@@H](C)O)NC(=O)[C@@H]1CCCN1C(=O)[C@H](Cc1c[nH]c3ccc(F)cc13)NC(=O)[C@H](Cc1c[nH]c3ccc(F)cc13)NC(=O)CNC(=O)[C@H](CCCCN)NC(=O)CCSCc1cccc(c1)CSC[C@@H](C(N)=O)NC2=O [Compound 045] ([Mpa]KG[Trp(5-F)][Trp(5-F)]PTY[X23]C-NH2; linker 1-10 via mXylylene) ) is 4.92 to 6.00

# pIC50 (compound: `COc1ccc(C[C@@H]2NC(=O)[C@@H]3CCCC/C=C/CO[C@H]4C[C@@H](C(=O)N3)N(C4)C(=O)[C@H](Cc3c[nH]c4ccc(F)cc34)NC(=O)[C@H](Cc3c[nH]c4ccc(F)cc34)NC(=O)[C@@H](C)NC(=O)[C@H](CCCCN)NC(=O)CCSCc3cccc(c3)CSC[C@@H](C(N)=O)NC(=O)[C@]3(C)CCCN3C2=O)cc1` ) is 6.00 to 7.00

# pIC50 (compound: COc1ccc(C[C@@H]2NC(=O)[C@H]([C@@H](C)O)NC(=O)[C@@H]3CCCN3C(=O)[C@H](Cc3c[nH]c4ccc(F)cc34)NC(=O)[C@H](Cc3c[nH]c4ccc(F)cc34)NC(=O)[C@@H](C)NC(=O)[C@H](CCCCN)NC(=O)CCSCc3cccc(c3)CSC[C@@H](C(N)=O)NC(=O)[C@]3(C)CCCN3C2=O)cc1 [Compound 054] ([Mpa]K[dA][Trp(5-F)][Trp(5-F)]PTY(Me)[αMeP]C-NH2; linker 1-10 via mXylylene) ) is 7.00 to 10.00

# pIC50 (compound: COc1cc2cc(c1)CSC[C@@H](C(N)=O)NC(=O)[C@@H]1CCCN1C(=O)[C@H](Cc1ccc(O)cc1)NC(=O)[C@H](Cc1c[nH]cn1)NC(=O)[C@H](CC(=O)O)NC(=O)[C@H](Cc1c[nH]c3ccc(F)cc13)NC(=O)[C@H](Cc1c[nH]c3ccc(F)cc13)NC(=O)CNC(=O)[C@H](CCCCN)NC(=O)CCSC2 [Compound 197] ([Mpa]KG[Trp(5-F)][Trp(5-F)]DHYPC-NH2; linker 1-10 via X35) ) is 4.30 to 4.68

# pIC50 (compound: C[C@@H]1NC(=O)CCSCc2cccc(c2)CSC[C@@H](C(N)=O)NC(=O)[C@@H]2CCCN2C(=O)[C@H](Cc2ccc(O)cc2)N(C)C(=O)[C@H](Cc2c[nH]cn2)NC(=O)[C@H](CC(=O)O)N(C)C(=O)[C@H](Cc2cn(C)c3ccccc23)N(C)C(=O)[C@H](Cc2c[nH]c3ccccc23)N(C)C(=O)CN(C)C1=O [Compound 259] ([Mpa]A[Sar][NMeW][NMeTrp(1-Me)][NMeD]H[NMeY]PC-NH2; linker 1-10 via mXylylene) ) is 4.92 to 6.00
